system: E. coli 12140; test: In vivo mouse protection (Table 2), E. coli 12140; conditions: Escherichia coli, 12140, po, E. coli 12140, p.o.

{"compound": "NC(=O)CCCn1nnnc1SCC1=C(C(=O)O)N2C(=O)C(NC(=O)CSC(F)(F)F)[C@H]2SC1 (stereo partly drawn)", "unit name": "mg/kg", "sign": "=", "ED50": 21.5}
{"compound": "O=C(O)CCCn1nnnc1SCC1=C(C(=O)O)N2C(=O)C(NC(=O)[C@H](O)c3ccccc3)[C@H]2SC1 (stereo partly drawn)", "unit name": "mg/kg", "sign": ">", "ED50": 50}
{"compound": "CN(C)C(=O)Cn1nnnc1SCC1=C(C(=O)O)N2C(=O)C(NC(=O)[C@H](O)c3ccccc3)C2SC1 (stereo partly drawn)", "unit name": "mg/kg", "sign": "=", "ED50": 168}
{"compound": "NC(=O)CCn1nnnc1SCC1=C(C(=O)O)N2C(=O)C(NC(=O)[C@H](N)c3ccc(O)cc3)[C@H]2SC1 (stereo partly drawn)", "unit name": "mg/kg", "sign": "=", "ED50": 25}
{"compound": "CNC(=O)Cn1nnnc1SCC1=C(C(=O)O)N2C(=O)C(NC(=O)[C@H](O)c3ccccc3)[C@H]2SC1 (stereo partly drawn)", "unit name": "mg/kg", "sign": "=", "ED50": 34}
{"compound": "O=C(O)CCn1nnnc1SCC1=C(C(=O)O)N2C(=O)C(NC(=O)CSC(F)(F)F)[C@H]2SC1 (stereo partly drawn)", "unit name": "mg/kg", "sign": ">", "ED50": 50}
{"compound": "NC(=O)Cn1nnnc1SCC1=C(C(=O)O)N2C(=O)C(NC(=O)CSC(F)(F)F)[C@H]2SC1 (stereo partly drawn)", "unit name": "mg/kg", "sign": "=", "ED50": 6.25}
{"compound": "Cn1nnnc1SCC1=C(C(=O)O)N2C(=O)C(NC(=O)C(O)c3ccccc3)[C@H]2SC1 (stereo partly drawn) [cephamandole, reference compound]", "unit name": "mg/kg", "sign": "=", "ED50": 28}
{"compound": "NC(=O)Cn1nnnc1SCC1=C(C(=O)O)N2C(=O)C(NC(=O)[C@H](O)c3ccccc3)[C@H]2SC1 (stereo partly drawn)", "unit name": "mg/kg", "sign": "=", "ED50": 50}
{"compound": "O=C(O)Cn1nnnc1SCC1=C(C(=O)O)N2C(=O)C(NC(=O)[C@H](O)c3ccccc3)[C@H]2SC1 (stereo partly drawn)", "unit name": "mg/kg", "sign": "=", "ED50": 50}
{"compound": "NC(=O)CCn1nnnc1SCC1=C(C(=O)O)N2C(=O)C(NC(=O)CSC(F)(F)F)[C@H]2SC1 (stereo partly drawn)", "unit name": "mg/kg", "sign": "=", "ED50": 25}
{"compound": "O=C(O)CCn1nnnc1SCC1=C(C(=O)O)N2C(=O)C(NC(=O)[C@H](O)c3ccccc3)[C@H]2SC1 (stereo partly drawn)", "unit name": "mg/kg", "sign": "=", "ED50": 50}
{"compound": "NC(=O)CCCn1nnnc1SCC1=C(C(=O)O)N2C(=O)C(NC(=O)[C@H](O)c3ccccc3)[C@H]2SC1 (stereo partly drawn)", "unit name": "mg/kg", "sign": ">", "ED50": 50}
{"compound": "NC(=O)CCn1nnnc1SCC1=C(C(=O)O)N2C(=O)C(NC(=O)[C@H](O)c3ccccc3)[C@H]2SC1 (stereo partly drawn)", "unit name": "mg/kg", "sign": "=", "ED50": 25}
{"compound": "CN(C)C(=O)Cn1nnnc1SCC1=C(C(=O)O)N2C(=O)C(NC(=O)[C@H](N)c3ccc(O)cc3)C2SC1 (stereo partly drawn)", "unit name": "mg/kg", "sign": "=", "ED50": 28.5}

Every entry's value here was drawn from patent US4220644A.
